biological target: T1, human PD-L1 protein (coated antigen) (human, UniProt Q9NZQ7 19-238, limits assumed); assay: ELISA, purified nanobody 10 ug/mL on coated PD-L1, anti-HA detection
T1 construct: Construct not described; also called PD-L1 antigen; antigenic protein PD-L1
T1 sequence (Q9NZQ7 19-238 limits assumed): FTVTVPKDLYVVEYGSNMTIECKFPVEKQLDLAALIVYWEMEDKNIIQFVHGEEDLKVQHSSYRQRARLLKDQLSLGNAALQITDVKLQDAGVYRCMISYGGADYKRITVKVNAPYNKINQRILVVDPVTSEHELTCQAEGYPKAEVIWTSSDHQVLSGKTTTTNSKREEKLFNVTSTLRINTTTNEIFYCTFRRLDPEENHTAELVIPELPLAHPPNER
Would you kindly list ELISA absorbance (A405 nm) for each of these binders?
Hi! Could you send only the number? It should be in A405 nm, unit omitted.

# input Entry under review: SEQ ID NO 10 (VHH, pMECS-expressed; also called anti-PD-L1 nanobody No. 10; VHH numbered 10) VHH: QVQLQESGGGSVQAGGSLRLSCTAPGFTSKTCAMRWYRQAPGKEREFVSAISTVGTTTYADSVKGRFIISKDEAKDTVYLQINSLKPEDTAMYSCKTFACRHCIGQSCRTEPDYWGQGTQVTVSS . Reported ELISA absorbance (A405 nm)?
# output 3.34

# input And for SEQ ID NO 9 (VHH, pMECS-expressed; also called anti-PD-L1 nanobody No. 9; VHH numbered 9) VHH: QVQLQESGGGSVQAGGSLRLSCAASGYTYSNDGMGWFRQIPGKEREGVAAISPTGRRTEYADSVQGRFTISRDNAKNMLSLQMNSLKPEDTGMYYCAREGSGSFSLQNSAVRSWGQGTQVTVSS ?
# output 3.56

# input Could you do the same for SEQ ID NO 12 (VHH, pMECS-expressed; also called anti-PD-L1 nanobody No. 12; VHH numbered 12) VHH: QVQLQESGGGSVQAGGSLRLSCAASGYTRSSHCMVWFRQAPGKEREGVALIYTGSGSTYYADSVKGRFTISQDNAKKTLYLQMNSLKPEDTAMYYCAAGTSSSSCPGLLGPPRYYNWGQGTQVTVSS , please?
# output 2.99

# input # iterate: SEQ ID NO 5 (VHH, pMECS-expressed; also called anti-PD-L1 nanobody No. 5; VHH numbered 5) VHH: QVQLQESGGGSVQTGGSLRLSCAASTSIYSNNYMAWFSQAPGKGREGVAAVYIDDGRPYYADSVKGRFTISLDSAKNTVYLQMNGLKPEDTAMYYCAAAPGPLSRNYWYTSANYDYWGQGTQVTVSS
# output 3.38
